Entries annotated with measured pIC50
# target.desc: SIK2 (Homo sapiens)
# Construct: purchased ThermoFisher Scientific PV4792
# Sequence (Q9H0K1 whole entry): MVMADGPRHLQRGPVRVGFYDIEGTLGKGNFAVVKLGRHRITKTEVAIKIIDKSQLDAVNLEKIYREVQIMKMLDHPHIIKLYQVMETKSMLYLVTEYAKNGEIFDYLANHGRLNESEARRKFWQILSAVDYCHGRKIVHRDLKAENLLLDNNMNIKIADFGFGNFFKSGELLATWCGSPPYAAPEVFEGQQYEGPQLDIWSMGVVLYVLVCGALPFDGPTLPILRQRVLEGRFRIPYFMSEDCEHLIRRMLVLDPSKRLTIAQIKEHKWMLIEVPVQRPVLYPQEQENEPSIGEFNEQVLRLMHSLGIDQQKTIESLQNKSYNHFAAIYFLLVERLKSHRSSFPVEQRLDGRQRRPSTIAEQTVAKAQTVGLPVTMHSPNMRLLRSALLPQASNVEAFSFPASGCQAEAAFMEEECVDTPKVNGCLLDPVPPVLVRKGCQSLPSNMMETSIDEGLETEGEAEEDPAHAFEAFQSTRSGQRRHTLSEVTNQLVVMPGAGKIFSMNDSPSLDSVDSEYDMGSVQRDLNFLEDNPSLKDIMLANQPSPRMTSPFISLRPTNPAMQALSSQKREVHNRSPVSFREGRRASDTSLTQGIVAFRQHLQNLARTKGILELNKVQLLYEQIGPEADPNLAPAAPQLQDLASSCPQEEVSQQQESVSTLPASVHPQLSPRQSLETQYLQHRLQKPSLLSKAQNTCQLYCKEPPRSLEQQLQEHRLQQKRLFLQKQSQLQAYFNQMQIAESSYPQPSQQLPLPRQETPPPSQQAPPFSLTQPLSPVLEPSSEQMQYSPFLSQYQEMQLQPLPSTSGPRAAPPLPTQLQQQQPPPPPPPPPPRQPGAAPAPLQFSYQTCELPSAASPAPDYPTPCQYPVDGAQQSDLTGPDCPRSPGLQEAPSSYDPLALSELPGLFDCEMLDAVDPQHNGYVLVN
# method.description: biochemical
# protocol.conditions: 33P radioactive SIK kinase assay, AMARA peptide, 10 μM ATP
pIC50: −log10 of the molar value.
parameter.measured: pIC50

In [3]: df
Out[3]:
                           structure_smiles  readout_value
0  COc1cc(-n2cnc3cc(-c4cnn(C)c4)ccc32)cc(OC)c1C(=O)NC[C@H]1COCCO1   6.30 to 7.00
1  COc1cc(-c2cnc3cc(-c4cnnc(C)c4)ccn23)cc(OC)c1C(=O)NCC(F)(F)F   7.00 to 8.00
2  COc1cc(-n2cnc3cc(-c4cnn(C)c4)ccc32)cc(OC)c1C(=O)NC(C)(C)C(F)(F)F         < 6.30
3  COc1cc(-c2cnc3cc(-c4cnn(C)c4)ccn23)cc(OC)c1C(=O)N1CC(C)(C)C1  8.00 to 11.00
4  COc1cc(-n2cnc3cc(-c4cnn(C)c4)ccc32)cc(OC)c1C(=O)Nc1cnn(C)c1   6.30 to 7.00
5  COc1cc(-n2cnc3cc(-c4cnn(C)c4)ccc32)cc(OC)c1C(=O)N1CC(N(C)C)C1   6.30 to 7.00
6  CCn1cc(-c2ccc3c(c2)ncn3-c2cc(OC)c(C(=O)NCC#N)c(OC)c2)cn1  8.00 to 11.00
7  COc1cc(-n2cnc3cc(-c4cnn(C)c4)ccc32)cc(OC)c1C(=O)NCCN   7.00 to 8.00

---

# Test system: LPS-induced TNFα secretion in monocyte-derived macrophages (MdM)
# method.description: MdM assay: LPS-triggered TNFα (ELISA)
# Type: cell-based, human
# protocol.conditions: Homo sapiens, Macrophage, LPS-triggered TNFα inhibition
# EC50 listing for each entry below
parameter.measured: EC50

In [3]: df
Out[3]:
                                    compound   readout_value
 0  COc1cc(-c2cnc3cc(-c4cnn(C)c4)ccn23)cc(OC)c1C(=O)NC1CC1   0.1 to 100 nM
 1  CCOC(=O)C(Cn1cc(-c2ccn3c(-c4cc(OC)c(C(=O)NCC(F)(F)F)c(OC)c4)cnc3c2)cn1)C(C)C (stereo not drawn)   0.1 to 100 nM
 2  CCOC(=O)C(C)Cn1cc(-c2ccn3c(-c4cc(OC)c(C(=O)NCC(F)(F)F)c(OC)c4)cnc3c2)cn1 (stereo not drawn)   0.1 to 100 nM
 3  COc1ncc(-c2ccn3c(-c4cc(OC)c(C(=O)NCC(F)(F)F)c(OC)c4)cnc3c2)cn1  100 to 1000 nM
 4  COc1cc(-c2cnc3cc(-c4cn(C)cn4)ccn23)cc(OC)c1C(=O)N[C@H](C)C(F)(F)F  100 to 1000 nM
 5  COc1cc(-c2cnc3cc(-c4cnn(CC(=O)OC(C)(C)C)c4)ccn23)cc(OC)c1C(=O)NCC(F)(F)F  100 to 1000 nM
 6  COc1cc(-c2cnc3cc(-c4cnn(CC(=O)OCC5CCC5)c4)ccn23)cc(OC)c1C(=O)NCC(F)(F)F   0.1 to 100 nM
 7  COc1cc(-c2cnn3cc(-c4cnn(C)c4)ccc23)cc(OC)c1C(=O)NCC(F)(F)F   0.1 to 100 nM
 8  COc1cc(-c2cnc3cc(-c4cnn(CC(=O)OC5CCOC5)c4)ccn23)cc(OC)c1C(=O)NCC(F)(F)F (stereo not drawn)  100 to 1000 nM
 9  CCNC(=O)c1c(OC)cc(-c2cnc3cc(-c4cn(C)cn4)ccn23)cc1OC(F)F   0.1 to 100 nM
10  CCn1cc(-c2ccc3c(c2)ncn3-c2cc(OC)c(C(=O)NCCC(F)(F)F)c(OC)c2)cn1  100 to 1000 nM
11  COc1cc(-c2cnc3cc(-c4cnn(C)c4)ccn23)cc(OC)c1C(=O)N1CC(F)(F)C1   0.1 to 100 nM
12  COc1cc(-c2cnc3cc(-c4cn[nH]c4)ccn23)cc(OC(F)F)c1C(=O)NC1CC1   0.1 to 100 nM
13  COc1cc(-c2cnc3cc(-c4cnn(C)c4)ccn23)cc(O)c1C(=O)NCC(F)(F)F   0.1 to 100 nM
14  COc1cc(-c2cnc3cc(-c4cnn(CC(=O)OC(C)C)c4)ccn23)cc(OC)c1C(=O)NCC(F)(F)F   0.1 to 100 nM
